# pEC50 per record follows
biological target: human GLP-1 receptor (Homo sapiens); construct: expressed in transfected cells; assay: GLP-1R cAMP Assay; assay type: cell-based; details: cAMP accumulation in CHO cells stably overexpressing the human GLP-1 receptor; 30 min treatment; HitHunter cAMP kit; read-out: EC50
pEC50: −log10 of the molar value.

Below are worked cases with known answers.
C[C@H]1C[C@@H](Oc2ccnc(COc3ccc(F)cc3F)c2)CCN1Cc1nc2ccc(C(=O)O)cc2n1C[C@@H]1CCO1; > 7.30
O=C(O)c1cc(F)c2nc(CN3CCC(Oc4ccnc(COc5ccc(F)cc5F)c4)CC3)n(C[C@@H]3CCO3)c2c1; > 7.30
O=C(O)c1ccc2nc(CN3CCN(C(=O)c4ccc(Cc5ccc(Cl)cc5Cl)o4)CC3)n(C[C@@H]3CCO3)c2c1; 6.30 to 7.30

Quote human GLP-1 receptor (Homo sapiens) pEC50 for entry Cc1ccc(OCc2cccc(CC3CCN(Cc4nc5ccc(C(=O)O)cc5n4C[C@@H]4CCO4)CC3)n2)c(Cl)c1 .
> 7.30

Give pEC50 for O=C(O)c1ccc2nc(CN3CCN(C(=O)c4ncc(COc5ccc(Cl)cc5Cl)o4)CC3)n(C[C@@H]3CCO3)c2c1 tested on human GLP-1 receptor (Homo sapiens).
< 6.30

* * *

EC50 overview
target: human GLP-1 receptor (Homo sapiens, UniProt P43220); construct: expressed in transfected cells; assay: GLP-1R cAMP Assay; type: cell-based; conditions: cAMP accumulation in CHO cells stably overexpressing the human GLP-1 receptor; 30 min treatment; HitHunter cAMP kit; read-out: EC50
Sequence (P43220 24-463): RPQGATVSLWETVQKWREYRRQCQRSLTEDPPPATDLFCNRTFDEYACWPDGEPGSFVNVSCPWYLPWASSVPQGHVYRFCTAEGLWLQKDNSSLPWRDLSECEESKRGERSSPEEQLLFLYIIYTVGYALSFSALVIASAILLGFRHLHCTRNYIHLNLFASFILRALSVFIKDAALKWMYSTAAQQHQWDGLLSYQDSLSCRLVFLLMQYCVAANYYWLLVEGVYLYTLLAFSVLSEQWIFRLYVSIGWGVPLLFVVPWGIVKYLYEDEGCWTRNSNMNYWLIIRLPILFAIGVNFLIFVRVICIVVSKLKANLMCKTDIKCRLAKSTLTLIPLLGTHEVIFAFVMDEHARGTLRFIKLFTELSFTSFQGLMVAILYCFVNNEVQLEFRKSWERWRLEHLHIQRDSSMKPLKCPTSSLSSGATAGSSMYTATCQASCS

O=C(O)c1ccc2nc(CN3CCc4[nH]c5c(OCc6ccc(Cl)cc6F)cccc5c4C3)n(C[C@@H]3CCO3)c2c1; > 500 nM
O=C(O)c1ccc2nc(CN3CCC(Oc4cccc(COc5ccc(Cl)cc5Cl)c4)CC3)n(C[C@@H]3CCO3)c2c1F; < 50 nM
N#Cc1ccc(OCc2nccc(OC3CCN(Cc4nc5ncc(C(=O)O)cc5n4C[C@@H]4CCO4)CC3)n2)c(F)c1; < 50 nM
Cc1ccc(Oc2cccc(C(=O)N3CCN(Cc4nc5ccc(C(=O)O)cc5n4C[C@@H]4CCO4)CC3)c2)c(C)c1; 50 to 500 nM
O=C(O)c1ccc2nc(CN3CCc4c([nH]c5c(OCc6ccc(Cl)cc6F)cccc45)C3)n(C[C@@H]3CCO3)c2c1; > 500 nM
N#Cc1ccc(COc2cccc(C3CCN(C(=O)c4ccc(-c5nnn[nH]5)nc4)CC3)n2)c(F)c1; < 50 nM
Cc1ccc(Oc2ccc(C(=O)N3CCN(Cc4nc5ccc(C(=O)O)cc5n4C[C@@H]4CCO4)CC3)cc2)cc1; > 500 nM
O=C(O)c1ccc2nc(CN3CCN(C(=O)c4cnc(COc5ccc(Cl)cc5Cl)o4)CC3)n(C[C@@H]3CCO3)c2c1; 50 to 500 nM
N#Cc1ccc(OCc2nccc(OC3CCN(Cc4nc5c(F)cc(C(=O)O)cc5n4C[C@@H]4CCO4)CC3)n2)c(F)c1; < 50 nM
CCn1cncc1Cn1c(CN2CCC(Cc3cncc(COc4ccc(Cl)cc4Cl)c3)CC2)nc2ccc(C(=O)O)cc21; < 50 nM

Query EC50 for Cc1ccc(N(C)c2ccc(C3CC3)c(C(=O)N3CCN(Cc4nc5ccc(C(=O)O)cc5n4C[C@@H]4CCO4)CC3)c2)c(Cl)c1
50 to 500 nM

Please report the measured EC50 for Cn1cncc1Cn1c(CN2CCC(Oc3ccnc(COc4ccc(Cl)cc4F)c3)CC2)nc2ccc(C(=O)O)cc21
< 50 nM

Return EC50 for the following compound: Cn1cncc1Cn1c(CN2CCC(Oc3ccnc(COc4ccc(Cl)cc4C#N)c3)CC2)nc2ccc(C(=O)O)cc21
< 50 nM

Look up and report measured EC50 for this entry: O=C(O)c1ccc2nc(CN3CCC(Oc4ccnc(COc5ccc(Cl)cc5F)c4)CC3)n(Cc3ccno3)c2c1
< 50 nM
